# tested.on: T1, TnMUC1 peptide (fully glycosylated), biotinylated
# T1 construct: Two batches (36-2 and 65-1) of the same peptide; also called 36-2; 7-36-2
# protocol.notes: SPR (Biacore T200), peptide 36-2 on CAP chip, scFv as analyte, 1:1 fit; average
Assign kon to each entry below.
Provide the measurement as a number trailed by its unit.

Which kon is reported for this binder? humanised anti-TnMUC1 scFv protein 16P4 (82A), L0-H3 (scFv, Supernatant of construct 6D4 in the Octet assay; purified 16P4 elsewhere. scFv of CAR MB021; also called 6D4) scFv: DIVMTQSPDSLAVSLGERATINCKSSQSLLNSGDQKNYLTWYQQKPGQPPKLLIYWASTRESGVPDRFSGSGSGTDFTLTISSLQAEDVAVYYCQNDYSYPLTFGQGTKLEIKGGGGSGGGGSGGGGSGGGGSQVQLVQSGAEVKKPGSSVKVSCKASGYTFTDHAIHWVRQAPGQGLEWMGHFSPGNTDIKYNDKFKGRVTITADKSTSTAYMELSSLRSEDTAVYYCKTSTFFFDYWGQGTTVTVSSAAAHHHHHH
35100 M⁻¹ s⁻¹

Proceed to humanised anti-TnMUC1 scFv protein 13P16 (97A), L2-H3 (scFv, Supernatant of construct 6D16 in the Octet assay; purified 13P16 elsewhere. scFv of CAR MB024; also called 6D16) scFv: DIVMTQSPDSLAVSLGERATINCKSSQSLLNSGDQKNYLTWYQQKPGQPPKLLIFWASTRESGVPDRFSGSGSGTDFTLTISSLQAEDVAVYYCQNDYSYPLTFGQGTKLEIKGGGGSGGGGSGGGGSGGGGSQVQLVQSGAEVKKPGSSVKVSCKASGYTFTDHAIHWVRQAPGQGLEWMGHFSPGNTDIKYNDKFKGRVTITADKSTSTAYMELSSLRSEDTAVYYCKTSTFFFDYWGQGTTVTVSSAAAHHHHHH
37800 M⁻¹ s⁻¹

Proceed to humanised anti-TnMUC1 scFv protein 13P18 (19A), L2-H5 (scFv, Supernatant of construct 6D18 in the Octet assay; purified 13P18 elsewhere. scFv of CAR MB025; also called 6D18) scFv: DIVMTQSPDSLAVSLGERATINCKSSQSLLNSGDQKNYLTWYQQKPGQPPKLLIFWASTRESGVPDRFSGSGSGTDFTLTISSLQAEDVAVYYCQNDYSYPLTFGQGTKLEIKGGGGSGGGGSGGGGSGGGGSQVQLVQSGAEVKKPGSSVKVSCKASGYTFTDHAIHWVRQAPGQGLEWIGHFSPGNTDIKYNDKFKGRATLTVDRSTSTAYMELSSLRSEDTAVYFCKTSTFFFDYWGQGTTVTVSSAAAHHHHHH
18400 M⁻¹ s⁻¹

Proceed to humanised anti-TnMUC1 scFv protein 11P12 (94A), L1-H5 (scFv, Supernatant of construct 6D12 in the Octet assay; purified 11P12 elsewhere; also called 6D12) scFv: ELVMTQSPDSLAVSLGERATINCKSSQSLLNSGDQKNYLTWYQQKPGQPPKLLIYWASTRESGVPDRFSGSGSGTDFTLTISSLQAEDVAVYYCQNDYSYPLTFGQGTKLEIKGGGGSGGGGSGGGGSGGGGSQVQLVQSGAEVKKPGSSVKVSCKASGYTFTDHAIHWVRQAPGQGLEWIGHFSPGNTDIKYNDKFKGRATLTVDRSTSTAYMELSSLRSEDTAVYFCKTSTFFFDYWGQGTTVTVSSAAAHHHHHH
28400 M⁻¹ s⁻¹
